System: M19-MEL
experiment description: NCI tumour cell line growth inhibition, 48 h
Active and inactive are the calls of the source. No stated cut-off is given here; in the data, active = GI50 up to about 1.1 µM and inactive = higher.
Reported GI50 values follow for various compounds

I'd like to know its GI50. The compound in question is CCOC(=O)[C@]12C3C=CC(C3)C1C(=O)C1OC12 (stereo not given in full)
> 100 µM (inactive)

I'd like to know its GI50. The compound in question is O=C1C=CN(C2OC(CO)C(O)C2O)C(=O)C1 (stereo not given)
35.6 µM (inactive)

----------
Reported GI50 values follow for various compounds
Tested on: NCI/ADR-RES
experiment description: NCI tumour cell line growth inhibition, 48 h
The source made the active and inactive calls. Cut-off read from the data, not from the text of the source: active = GI50 up to about 1.1 µM and inactive = higher. Starred links: 1 amine or outer side, 2 acyl side, 3 side chain; linkers in the order of their positions; H or OH if unused. Positions of bridges follow the written chain, without caps; N, C: chain ends. Non-standard residues stand in square brackets, D forms with d. Residues, ends and D or L forms follow the SMILES beside them. Chains are numbered I, II in the order given. Actinocin(9to1) = Cc1c2oc3c(C)ccc(C(=O)[*:1])c3nc-2c(C(=O)[*:2])c(N)c1=O; NMeV = CN[CH](C(=O)O)C(C)C; Sar = CNCC(=O)O

- compound: "Cc1c2oc3c(C)ccc(C(=O)NC4C(=O)NC(Cc5ccc(O)cc5)C(=O)N5CCCC5C(=O)N(C)CC(=O)N(C)C(C(C)C)C(=O)OC4C)c3nc-2c(C(=O)NC2C(=O)NC(Cc3ccc(O)cc3)C(=O)N3CCCC3C(=O)N(C)CC(=O)N(C)C(C(C)C)C(=O)OC2C)c(N)c1=O (configuration not stated) (I: TYP[Sar][NMeV] / II: TYP[Sar][NMeV]; ester I:1-I:C, II:1-II:C; linker I:N-II:N via Actinocin(9to1); configuration not given here)"
  tested system: "NCI/ADR-RES"
  GI50: "> 94 µM (inactive)"
- compound: "CN(/N=C/c1ccccc1C(=O)O)C1=NCCCCN1"
  tested system: "NCI/ADR-RES"
  GI50: "> 100 µM (inactive)"
- compound: "C=C1C(=O)O[C@H]2C1C[C@H](O)[C@@]1(C)OC1CC[C@@]1(C)O[C@H]21 (some centres not stated)"
  tested system: "NCI/ADR-RES"
  GI50: "20.9 µM (inactive)"

I'd like to know its GI50. The compound in question is "CCOP(=O)(O)CN1CCNCCN(CP(=O)(O)OCC)CCNCC1"
> 100 µM (inactive)

I'd like to know its GI50. The compound in question is "N#C/C(=C\c1cc(F)cc(F)c1)c1ccccn1"
23.6 µM (inactive)

I'd like to know its GI50. The compound in question is COc1cc2c(cc1OCCCC(=O)Nc1cc(C(=O)Nc3cc(C(=O)Nc4cc(C(=O)NCCCN(C)C)n(C)n4)n(C)c3)n(C)c1)N=CC1CCCN1C2=O (configuration not stated)
39.8 µM (inactive)

I'd like to know its GI50. The compound in question is "Cc1cc(N(CCC#N)CCC#N)ccc1C(/N=N/c1ccc(Cl)cc1)=N\NC(=O)c1ccccc1"
27.4 µM (inactive)

I'd like to know its GI50. The compound in question is "C=CCOc1ccc(C(=N/NC(=O)c2ccccc2)/N=N/c2ccc(C)cc2)cc1OC"
35.7 µM (inactive)

I'd like to know its GI50. The compound in question is CC1=NC(=N)N=C(C)C1/N=N/c1ccc2[nH]c(C)nc2c1 (configuration not stated)
> 100 µM (inactive)

I'd like to know its GI50. The compound in question is CCC(CCCCC1CC[C@H]2CC(=O)C[C@@H]12)OC (some centres not stated)
71.1 µM (inactive)

I'd like to know its GI50. The compound in question is O=C1CC2(CCN(CC3COc4ccccc4O3)CC2)C(=O)N1N1CCCCCC1 (configuration not stated)
52.7 µM (inactive)

I'd like to know its GI50. The compound in question is CC(C)CC(C(N)=O)C(=O)NC(Cc1ccccc1)NC(=O)CNC(=O)C(C)NC(=O)C(N)Cc1ccc(O)cc1 (configuration not stated)
> 100 µM (inactive)

I'd like to know its GI50. The compound in question is "O=CNCCCN1CCN(CCCNC=O)CC1"
> 100 µM (inactive)

I'd like to know its GI50. The compound in question is "O=C(/C=C\c1ccccc1-c1ccccc1)c1ccccc1"
> 100 µM (inactive)

I'd like to know its GI50. The compound in question is O=C(NC1C(=O)NC(CCc2ccccc2)NC1=O)OCc1ccccc1 (configuration not stated)
> 100 µM (inactive)

I'd like to know its GI50. The compound in question is C=C1C[C@H](O)[C@H]2C(C[Se]c3ccccc3)C(=O)O[C@@H]2[C@H]2[C@H](C)C(O)C[C@@H]12 (some centres not stated)
20.2 µM (inactive)

I'd like to know its GI50. The compound in question is "Cn1c(=O)c2c(ncn2Cc2ccc(O)c([N+](=O)[O-])c2)n(C)c1=O"
> 100 µM (inactive)
